Tested on: Rhizoctonia solani
testSummary: Poison food technique (contact action), mycelial growth inhibition in PDA
Assay type: cell-based, Rhizoctonia solani AG-4, isolate Rs 23A
conditionParameters: amount oil 15 μL/20 mL plate; poison bed experiment 2
propertyMeasured: PoisonB2 % inhibition (%)
I only need the number, in %, no unit after it.

Known PoisonB2 % inhibition results, listed for orientation:
C=CC(C)(O)CCC=C(C)CCC=C(C)C (mixture of isomers) :: 78
Cc1ccc(C(C)C)cc1O :: 100
C=CCN=C=S [Allylisothiocyanate] :: 100
CC(C)=CCC/C(C)=C/CO :: 100
CC=Cc1ccc(OC)cc1 :: 100
Cc1ccc(C(C)C)c(O)c1 :: 42

Pending compound:
Incoming: Request the reported PoisonB2 % inhibition associated with "C=CCc1ccc(OC)cc1"
Outgoing: 13
